target: AMP-activated protein kinase, AMPK (Homo sapiens) (UniProt P54646+O43741+P54619+Q9UGJ0+Q9Y478+Q13131+Q9UGI9); test: AMP-dependent Kinase enzyme assay. An in vitro enzyme assay that detects ADP turnover that is directly proportional to AMPK activity. This uses naive AMPK that is activated during the assay with MK-8722; format: functional; design: scale not given: direction of the effect not stated beside the values; details: 30 µM
Hi there, I'd appreciate the recorded Percent Effect for every entry that follows.
Remember to quote the unit after the number.

Task item: Percent Effect lookup needed for CCc1noc(C)c1C(=O)N1CCCC1Cn1nc(C)cc1C (stereo not drawn) , thanks.
Reply: -1.52%

Task item: For the molecule Cn1cc(C[C@H]2[C@H](O)CCN2CC2CC2)cn1 , what Percent Effect is on record?
Reply: 6.23%

Task item: Would you mind telling me what Percent Effect value was observed for COc1c(CNCc2ccc(CN(C)C)cc2)c(C)nn1C ?
Reply: 3.93%

Task item: Using the record for CNC(=O)[C@@]12CCCN(c3ncccn3)[C@@H]1CN(C(=O)NC(C)C)C2 , report its Percent Effect.
Reply: 3.44%

Task item: Value lookup for Percent Effect; key = Cc1nn(C)c(C)c1C1CCCN1C(=O)c1ccc(NC2CC2)nc1 (stereo not drawn)
Reply: -3.14%

Task item: Consider the molecule CN(CC(=O)N(C)C1CCCCC1)C1CCc2ccccc21 (stereo not drawn) and give its measured Percent Effect.
Reply: 6.4%

Task item: Would you kindly share the measured Percent Effect for COc1ccc(NC(=O)C2CCOC2)c(N2CCN(C(C)=O)CC2)n1 (stereo not drawn) ?
Reply: -66.2%

Task item: # input molecule: CC(Cn1cccn1)NC(=O)Nc1nnc(C2CC2)s1 (stereo not drawn) ; wanted: its Percent Effect
Reply: 2.37%

Task item: Fill in the blank: the reported Percent Effect of CNc1nc(CNC(=O)Nc2ccccc2-c2noc(C)n2)cs1 is ____.
Reply: -2.79%

Task item: Given the molecule Cc1cc(-c2cnc(NC3CC3)nc2-c2ccc(C)o2)on1 , what is its reported Percent Effect?
Reply: 55.8%

Task item: Need Percent Effect of CN(C)S(=O)(=O)N1CCC(Oc2ccc(C#N)cn2)CC1 , thanks.
Reply: 0.734%

Task item: Give the measured Percent Effect of O=C(Cc1ccccn1)N1CCC2(CC1)CC(Oc1ccccn1)CO2 (stereo not drawn) .
Reply: 4.11%

Task item: # query: Percent Effect of entry CC(C)Cc1cc(C(=O)N2CCCC(n3cncn3)C2)[nH]n1 (stereo not drawn)
Reply: 6.88%

Task item: Quick one: Percent Effect of Cc1noc(CCCC(=O)NC(C)c2ccccn2)n1 (stereo not drawn) ?
Reply: -1.11%

Task item: Entry under review: CC(C)S(=O)(=O)NCC1CCCN(C(=O)c2ccc3c(c2)OCCO3)C1 (stereo not drawn) . Reported Percent Effect?
Reply: 3.11%

Task item: Please look up its Percent Effect: CCN1CCn2c(C)cnc2C12CCN(C(=O)CC(C)C)CC2
Reply: 6.38%

Task item: Given O=C(NS(=O)(=O)c1ccc2c(c1)OCCO2)c1ccc(Br)cc1F , state its recorded Percent Effect.
Reply: 13.5%

Task item: Return reported Percent Effect; argument: O=C(c1ccc(F)cc1)N1C[C@@H]2OCCN(c3ncccn3)[C@@H]2C1
Reply: 3.73%

Task item: Endpoint output: Percent Effect of CC(C)c1cc(NC(=O)CN2CCc3ccccc3C2)on1 . Value?
Reply: -1.59%

Task item: Would you mind telling me what Percent Effect value was observed for CC1CCN(Cn2nc(-c3ccc(F)cc3)oc2=O)CC1 ?
Reply: 4.52%

Task item: I would be grateful if you could share the reported Percent Effect for O=C(NCC1CCCO1)c1c(-n2cnnn2)sc2c1CCC2 (stereo not drawn) .
Reply: 6.31%

Task item: # input molecule: Cc1cnc(N)c(C(=O)C2CCN(C(=O)c3ccccc3F)CC2)c1 ; wanted: its Percent Effect
Reply: 4.93%

Task item: Look up Percent Effect for this molecule: O=C(Nc1nc2c(s1)CN(S(=O)(=O)C1CC1)CC2)c1c(F)cccc1F
Reply: 17.1%

Task item: Which value of Percent Effect has been reported for Cc1ccc2c(ccn2CCC(=O)NC[C@@H]2CCCN3CCCC[C@H]23)c1 in the records?
Reply: -3.71%

Task item: Query: Percent Effect; subject: Cc1nc(C)n(C2CCCN(C(=O)Cc3n[nH]c4ccccc34)C2)n1 (stereo not drawn)
Reply: 5.72%

Task item: Recorded Percent Effect of Cc1ccccc1C(=O)NCc1ccc(N2CCNC(=O)C2)cc1 , please.
Reply: -9.32%

Task item: Name the reported Percent Effect value associated with the molecule COc1ccnc(N2CCN(C(=O)Cc3ccc(C)s3)CC2)n1
Reply: 5.06%

Task item: Using the record for c1ccc2cc(OCCN3CCOC(Cn4cncn4)C3)ccc2c1 (stereo not drawn) , report its Percent Effect.
Reply: -0.381%

Task item: Name the recorded Percent Effect for O=C(C1CCCc2[nH]ncc21)N1CCCCCC1 (stereo not drawn) .
Reply: -4.75%

Task item: Could you share which Percent Effect value was measured for CN(C(=O)CCNC(=O)NC1CCCCC1)c1ccccc1 ?
Reply: -2.45%

Task item: // returns reported Percent Effect for input Cc1nc(C)n(CC2CCCN(Cc3nnc(C(C)(C)C)o3)C2)n1 (stereo not drawn)
Reply: 5.56%

Task item: Need Percent Effect, item CCN(Cc1ccco1)C(=O)NCc1nnc2n1CCC2
Reply: -2.71%

Task item: Request the reported Percent Effect associated with CCN1CCCN(C(=O)c2cnc(OC(C)C)c(Cl)c2)CC1
Reply: 9.83%

Task item: So what does the record say about Percent Effect for COc1cccc(Cc2nnc(SC3CCOC3=O)o2)c1 (stereo not drawn) ?
Reply: -9.71%

Task item: Return reported Percent Effect; argument: Cc1nc(C)n(C2CCCN(C(=O)CCc3ccncc3)C2)n1 (stereo not drawn)
Reply: 0.169%

Task item: // query Percent Effect value for entry CCCNC(=O)NC(=O)CN(CC(C)O)c1ccccc1 (stereo not drawn)
Reply: 2.88%

Task item: Fill in: Percent Effect of CC(C)CCNC(=O)c1sccc1N(C)S(=O)(=O)c1ccccc1 is ___
Reply: -3.53%

Task item: Report Percent Effect for CC(C)NC(=O)N1CCN(S(=O)(=O)C2CC2)CC2(CNC(=O)C2)C1 (stereo not drawn) please.
Reply: 0.68%

Task item: What value of measured Percent Effect is listed for CCc1nnc2n1CCN(C(=O)c1ccc3[nH]cnc3c1)C2 ?
Reply: -11.5%

Task item: Quick one: Percent Effect for CCc1nc2n(n1)CC(NCc1noc(-c3ccccc3)n1)CC2 (stereo not drawn) ?
Reply: -5.76%

Task item: Tell me the measured Percent Effect of Cc1nn(C)c(N(C)C)c1CNCc1cccnc1 , please.
Reply: -6.42%

Task item: Dear colleague, I am looking for the recorded Percent Effect of the following molecule: CCC(C)NC(=O)Nc1ccc(CN2CCOC2=O)cc1 (stereo not drawn)
Reply: -16.3%

Task item: What value of Percent Effect has been recorded for this entry: Cc1cc(CNC(=O)NC(C)c2ccc(N3CCOCC3)cc2)no1 (stereo not drawn)
Reply: -1.83%

Task item: Endpoint output: Percent Effect of Cc1ccc(NC2CCN(C(=O)Cc3cccc(F)c3)CC2)nn1 . Value?
Reply: -15.1%

Task item: Data request, read-out Percent Effect, for CN(CCN1CCCCC1)C(=O)c1cc(CN2CCOCC2)on1
Reply: -18.2%

Task item: For the molecule shown here, O=C1CC[C@H]2[C@H](CCN2C(=O)C2CCOCC2)N1Cc1ccncc1 , give the reported Percent Effect.
Reply: -7.93%

Task item: Quick one: Percent Effect for CC1c2ncc(Cn3cncn3)n2CCN1C1CCOCC1 (stereo not drawn) ?
Reply: -5.46%

Task item: Fill blank: measured Percent Effect of the molecule N#Cc1ncn(CC(=O)Nc2cc(Cl)ccc2F)n1 is ____.
Reply: 6.62%

###

species on record: Homo sapiens; test: To identify inhibition of the IFN signalling (Jak-Stat) pathway via expression of an eGFP reporter gene under the control of an IFN-stimulated response element (ISRE) containing MxA promoter.; type: functional; parameters: scale not given: direction of the effect not stated beside the values; settings: 30 µM
Endpoint label: Percent Effect (%)
Write it as a number; the unit % goes unstated.

Task item: Suppose we examine the compound Cn1cnnc1C1CCCN(C(=O)NCCNc2ccccn2)C1 (centres undefined) ; what Percent Effect value has been reported?
Reply: 4.54

Task item: Quick check: Percent Effect of CC(Cn1ccnc1)NC(=O)NCCc1ccccn1 (centres undefined) ?
Reply: 6.74

Task item: Fill in: Percent Effect of NS(=O)(=O)Cc1ccc(CNC(=O)NCC2CCOC2)cc1 (centres undefined) is ___
Reply: -5.41

Task item: Fill in the blank: the reported Percent Effect of Cn1ncc2c(=O)[nH]c(N3CCN(C(=O)c4ccsc4)CC3)nc21 is ____.
Reply: 25

Task item: Percent Effect lookup needed for Cc1cccc(CNC(CN2CCN(C)CC2)c2ccccc2)c1 (centres undefined) , thanks.
Reply: 25.7

Task item: Any idea what its Percent Effect is? The compound is CC(C)n1cc(CN2CCCN(C(=O)c3ccc[nH]3)CC2)cn1
Reply: -10.5

Task item: Would you mind telling me what Percent Effect value was observed for Cn1ncc2c1CN(Cc1cccnc1)CC2COCC1CC1 (centres undefined) ?
Reply: -15.1

Task item: // lookup Percent Effect for CCOc1ccnc(N2CCN(C(=O)c3cccnc3O)CC2)n1
Reply: 2.56

Task item: Given the compound CN(CC1(O)CCCN(CCC2CCCCC2)C1=O)C1CCOCC1 (centres undefined) , what is its reported Percent Effect?
Reply: 6.58

Task item: Which Percent Effect value belongs to CC(=O)N1CCC2(CC1)COCCN2Cc1ccc(F)cc1 ?
Reply: -2.37

Task item: For CCCNC(=O)CN1CCC(C(=O)Nc2cnn(CC)c2)CC1 , what is its reported Percent Effect?
Reply: 7.34

Task item: Reported Percent Effect, compound O=C(c1ccc(O)c(Cl)c1)N1CCC(c2n[nH]c(C3CC3)n2)CC1 : ____
Reply: 8.98

Task item: Fill in the blank: the reported Percent Effect of CCNC(=O)CN1CCCN(C(=O)C2CCCc3[nH]ncc32)CC1 (centres undefined) is ____.
Reply: -11.9

Task item: Given the entry COc1c(C2CCCN2C(=O)c2csc(C(C)C)n2)c(C)nn1C (centres undefined) , report its measured Percent Effect.
Reply: 8.75

Task item: # lookup: Percent Effect of Cc1ccc(C2CSCCN2C(=O)c2ccc(C(N)=O)cc2)o1 (centres undefined)
Reply: -21.9

Task item: // query Percent Effect value for entry COCCN(Cc1ccoc1)C(=O)c1ccccc1Cl
Reply: 14.2

Task item: Need Percent Effect, item COc1ccccc1CC(=O)N1CCC(NCc2cc[nH]c2)CC1
Reply: 5.88

Task item: Dear colleague, I am looking for the recorded Percent Effect of the following compound: O=C(c1cnoc1)N1CCC[C@]2(C[C@H](Oc3ncccc3F)CO2)C1
Reply: 9.74

Task item: Param item = CN(C(=O)NCCCN1CCCC1)C1CCN(c2ccccc2)C1=O (centres undefined) ; retrieve measured Percent Effect.
Reply: 24.5

Task item: Dear colleague, I am looking for the recorded Percent Effect of the following compound: N#Cc1cccc(S(=O)(=O)NC(=O)COC2CCCC2)c1
Reply: 0.622

Task item: Could you tell me which Percent Effect is on file for Cc1c(C2CCCN(C(=O)C3CC3)C2)n2c(nc1=O)CCC2 (centres undefined) ?
Reply: 3.94

Task item: Dear colleague, I am looking for the recorded Percent Effect of the following compound: COc1cccc(OCCNC(=O)CN2CCN(C)CC2C)c1 (centres undefined)
Reply: 11.6

Task item: What measured Percent Effect goes with Cc1cc(CN2CCN(C(c3ccccc3)c3ccccc3)CC2)no1 ?
Reply: 15.5

Task item: What does the data say about its Percent Effect? Entry: CC1CCN(S(=O)(=O)c2cccn(CC(=O)N3CCOCC3)c2=O)CC1
Reply: 0.032

Just for reference, ChEMBL document CHEMBL3988442 is where these values come from.
